# Tested on: pigweed (Amaranthus retroflexus)
# PROCEDURE TEXT: Test A postemergence
# Type: in vivo
# RUN CONDITIONS: Postemergence, 500 g ai/ha; 0 to 100 scale where 0 is no effect and 100 is complete control
READOUT KIND: Plant response rating, Pigweed
Please give the numeric answer without any surrounding text.

A selection of reference data follows.
{"columns": ["COMPOUND", "VAL"],
 "data": [
  ["CN1CC(c2cccc(OC(F)F)c2)C(C(=O)Nc2ccccc2S(C)(=O)=O)C1=O (stereo not drawn) [Compound 523]", 60],
  ["CN1CC(c2ccc(Br)cc2)C(C(=O)Nc2cccc(F)c2F)C1=O (stereo not drawn) [Compound 564]", 70]
]}

The record that follows has no Plant response rating, Pigweed shown yet.
**Q:** Please indicate recorded Plant response rating, Pigweed of C=C(Cl)CN1CC(c2cccc(C(F)(F)F)c2)C(C(=O)Nc2cccc(F)c2F)C1=O (stereo not drawn) [Compound 480] measured with pigweed (Amaranthus retroflexus).
**A:** 0

---

Measured pest or weed control at 125 g/ha of individual entries
# System: Kochia (Kochia scoparia)
# PROCEDURE TEXT: Test A preemergence
# Format: in vivo
# RUN CONDITIONS: Bassia scoparia, pre-emergence, 240 h, 125 g ai/ha, preemergence; 0 to 100 scale where 0 is no effect and 100 is complete control; approx. 10 d; read-out: Kochia plant response rating
Answer in %, number only, no unit symbol.

{"columns": ["COMPOUND", "MEASUREMENT UNIT", "pest or weed control at 125 g/ha"],
 "data": [
  ["Cc1nc([C@H]2CNC(=O)[C@@H]2C(=O)Nc2cccc(F)c2F)cs1", "%", 0],
  ["CN1CC(c2cccc(C(F)(F)F)c2)C(C(=O)Nc2ccccc2CO)C1=O (stereo not drawn)", "%", 50]
]}

Attention now turns to another entry.
**Q:** Identify pest or weed control at 125 g/ha associated with the compound `O=C1NC[C@H](c2csc3c2CCC3)[C@H]1C(=O)Nc1cccc(F)c1F`
**A:** 20

---

# Test system: giant foxtail (Setaria faberii)
# PROCEDURE TEXT: Test A preemergence
# Type: in vivo
# RUN CONDITIONS: Setaria faberi, pre-emergence, 240 h, 125 g ai/ha, Preemergence, visual injury rating after approximately 10 d; read-out: Foxtail, Giant plant response rating (0 to 100 scale, 0 is no effect, 100 is complete control)
READOUT KIND: pest or weed control at 125 g/ha (%)
Please respond with the number in % and leave the unit unwritten.

Worked cases, pest or weed control at 125 g/ha given:
{"columns": ["SMILES DATA", "MEASUREMENT TARGET", "MEASUREMENT UNIT", "VAL"],
 "data": [
  ["O=C1NC[C@H](c2ccc3c(c2)OCO3)[C@H]1C(=O)Nc1ccc(F)c(F)c1F", "giant foxtail (Setaria faberii)", "%", 40],
  ["CC(C)Oc1ccc([C@H]2CN(C)C(=O)[C@@H]2C(=O)Nc2ccccc2F)cc1", "giant foxtail (Setaria faberii)", "%", 80],
  ["CN1C[C@H](c2cc(F)cc(C(F)(F)F)c2)[C@@H](C(=O)Nc2ccc(F)c(F)c2F)C1=O", "giant foxtail (Setaria faberii)", "%", 90],
  ["CN1CC[C@H](c2ccccc2)[C@@H](C(=O)Nc2ccccc2F)C1=O", "giant foxtail (Setaria faberii)", "%", 0]
]}

Now, please, on to the next compound.
**Q:** Complete the entry with pest or weed control at 125 g/ha for `COc1ccc([C@H]2CN(C)C(=O)[C@@H]2C(=O)Nc2ccccc2SC)cc1C(F)(F)F`
**A:** 90

---

# Test system: corn (Zea mays)
# PROCEDURE TEXT: Test G Pre-Emergence Protocol
# Type: in vivo
# RUN CONDITIONS: Zea mays, pre-emergence, 312 h, 250 g ai/ha, evaluated after 13 days, read-out: Corn damage rating (100=total damage to plant; 0=no damage to plant)
The entries below come with measured plant injury at 250 g/ha values attached.
Number in %, nothing else.

{"columns": ["COMPOUND", "MEASUREMENT UNIT", "plant injury at 250 g/ha"],
 "data": [
  ["CN1C[C@H](c2ccc(C(F)(F)F)cc2)[C@@H](C(=O)Nc2ccc(C(F)(F)F)cn2)C1=O (racemic)", "%", 0]
]}

**Q:** For the compound COc1cc([C@@H]2CN(C)C(=O)[C@H]2C(=O)Nc2cccc(F)c2F)ccc1Cl (racemic) , give its reported plant injury at 250 g/ha.
**A:** 40

**Q:** Provide measured plant injury at 250 g/ha value, entry: COc1cc(C)cc([C@@H]2CN(C)C(=O)[C@H]2C(=O)Nc2cccc(F)c2C)c1 (racemic)
**A:** 80

**Q:** In one line, give reported plant injury at 250 g/ha of the entry CN1C[C@@H](c2ccc(C(F)(F)F)cc2)[C@H](C(=O)Nc2ccc(F)nc2F)C1=O (racemic) .
**A:** 80

---

Listing of entries alongside the reported pest or weed control at 125 g/ha.
# Test system: blackgrass (Alopecurus myosuroides)
# PROCEDURE TEXT: Test A postemergence
# Format: in vivo
# RUN CONDITIONS: Alopecurus myosuroides, post-emergence, 240 h, 125 g ai/ha, postemergence; visual injury on 0 to 100 scale (0 no effect, 100 complete control), approx. 10 d; read-out: Blackgrass plant response rating
Numbers only; they are read as %.

{"columns": ["COMPOUND", "pest or weed control at 125 g/ha (%)"],
 "data": [
  ["CSc1ccccc1NC(=O)[C@H]1C(=O)NC[C@@H]1c1cc(F)c(F)c(F)c1 [Compound 1124]", 0]
]}

**Q:** Using the record for CN1C[C@H](c2cc(C(F)F)cs2)[C@@H](C(=O)Nc2cccc(F)n2)C1=O [Compound 1090] , state its measured pest or weed control at 125 g/ha.
**A:** 20

**Q:** Consider the compound CN1C[C@H](c2ccc(C(F)(F)F)cc2)[C@](F)(C(=O)Nc2cccc(F)c2F)C1=O (racemic) [Compound 1152] and give its recorded pest or weed control at 125 g/ha.
**A:** 0

---

# Tested on: ryegrass, Italian (Italian ryegrass, Lolium multiflorum)
# PROCEDURE TEXT: Test A postemergence
# Format: in vivo
# RUN CONDITIONS: Lolium multiflorum, post-emergence, 240 h, 125 g ai/ha, postemergence, visual injury vs untreated controls after approx. 10 d; 0 = no effect, 100 = complete control; read-out: Ryegrass, Italian plant response rating (0 to 100 scale)
Measured pest or weed control at 125 g/ha values are reported for all entries that follow.

{"columns": ["MOLECULE", "READOUT KIND", "VAL"],
 "data": [
  ["Cc1cccc([C@H]2CN(C)C(=O)[C@@H]2C(=O)Nc2cccc(F)c2C)c1 [Compound 1233]", "pest or weed control at 125 g/ha", "40%"],
  ["CN1C[C@H](c2cc(F)cc(C(F)(F)F)c2)[C@@H](C(=O)Nc2cccnc2F)C1=O [Compound 1176]", "pest or weed control at 125 g/ha", "30%"],
  ["CN1CC[C@H](c2ccc(C(F)(F)F)cc2)[C@@H](C(=O)Nc2cccc(Cl)c2F)C1=O [Compound 1228]", "pest or weed control at 125 g/ha", "0%"],
  ["COc1cc([C@H]2CN(C)C(=O)[C@@H]2C(=O)Nc2ccccc2SC)cc(OC)c1OC [Compound 1218]", "pest or weed control at 125 g/ha", "0%"],
  ["CN1C[C@H](c2cccc(C(F)(F)F)c2)[C@@H](C(=O)Nc2ccc(F)cc2C(F)(F)F)C1=O [Compound 1250]", "pest or weed control at 125 g/ha", "20%"]
]}

**Q:** Supply reported pest or weed control at 125 g/ha belonging to this molecule: CN1C[C@H](c2ccc(F)c(F)c2)[C@@H](C(=S)Nc2ccccc2F)C1=O (racemic) [Compound 1153]
**A:** 0%

---

# System: giant foxtail (Setaria faberii)
# PROCEDURE TEXT: Test A preemergence
# Type: in vivo
# RUN CONDITIONS: Setaria faberi, pre-emergence, 240 h, 125 g ai/ha, preemergence; 0 to 100 scale where 0 is no effect and 100 is complete control; approx. 10 d; read-out: Foxtail, Giant plant response rating
We begin with a simple list: items and their reported pest or weed control at 125 g/ha.
Reply with just the number (in %).

{"columns": ["SMILES DATA", "pest or weed control at 125 g/ha (%)"],
 "data": [
  ["CN1C[C@H](c2csc3c2CCCC3)[C@@H](C(=O)Nc2ccc(F)c(F)c2F)C1=O", 100],
  ["O=C1NC[C@H](c2ccc(F)c(OC(F)(F)C(F)F)c2)[C@H]1C(=O)Nc1cccc(F)c1F", 90]
]}

// next entry
**Q:** Using the record for `O=C1NC[C@H](c2csc3c2CCC3)[C@H]1C(=O)Nc1cccc(F)c1F` , state its measured pest or weed control at 125 g/ha.
**A:** 30

Attribution: patent US12077503B2
